System: HeLa
Assay: Primary qHTS to identify gynecologic anti-cancer compounds using libraries of approved drugs and bioactive compounds (AID 1345084); further: nearly all actives have a fitted effect of over 55% in size
Settings: Gynecologic cancer cell panel viability, ATPlite luminescence, 48 h; series mostly up to 57.5 µM
Inconclusive results are not listed. Activity calls are given as the source filed them. The call rests on the fitted dose curve; in most records, active means well fitted cell-killing curve with a large enough effect; inconclusive means small, poorly fitted or top-dose-only effect, or effect the other way; inactive means flat fitted curve, though single readings scatter.
Classes used: active, inactive

[[record]]
smilesrepresentation = "Nc1ccccc1NC(=O)c1ccc(CNC(=O)OCc2cccnc2)cc1"
assaysystem = "HeLa"
classassignment = "active"

[[record]]
smilesrepresentation = "COc1cccc(Nc2c(C(N)=O)cnc3c(C)cc(S(=O)(=O)c4cccc(C(=O)N(C)C)c4)cc23)c1"
assaysystem = "HeLa"
classassignment = "inactive"

[[record]]
smilesrepresentation = "CN(C)Cc1c(C(=O)NCCOc2ccc(C(=O)NO)cc2)oc2ccccc12"
assaysystem = "HeLa"
classassignment = "active"

[[record]]
smilesrepresentation = "Cc1ccc2nc(NC(=O)CSc3nc4c(c(=O)n3-c3ccccc3)SCC4)sc2c1"
assaysystem = "HeLa"
classassignment = "inactive"

[[record]]
smilesrepresentation = "CNC(=O)CN1CCC(Oc2cc3c(Nc4cccc(Cl)c4F)ncnc3cc2OC)CC1"
assaysystem = "HeLa"
classassignment = "inactive"

[[record]]
smilesrepresentation = "Nc1nccc(Oc2ccc(NC(=O)c3c[nH]cc(-c4ccc(F)cc4)c3=O)cc2F)c1Cl"
assaysystem = "HeLa"
classassignment = "inactive"

[[record]]
smilesrepresentation = "CCCCCCCCCC(=O)N[C@@H](Cc1c[nH]c2ccccc12)C(=O)N[C@H](CC(N)=O)C(=O)N[C@@H](CC(=O)O)C(=O)N[C@@H]1C(=O)NCC(=O)N[C@@H](CCCN)C(=O)N[C@@H](CC(=O)O)C(=O)N[C@H](C)C(=O)N[C@@H](CC(=O)O)C(=O)NCC(=O)N[C@H](CO)C(=O)N[C@@H]([C@@H](C)CC(=O)O)C(=O)N[C@@H](CC(=O)c2ccccc2N)C(=O)O[C@@H]1C"
assaysystem = "HeLa"
classassignment = "inactive"


====

Assay: Quantitative High-Throughput drug screen in 47 multiple myeloma cell lines against the NCATS MIPE library collection: KMS28PE_JCRB cell viability assay (AID 1918983); further: nearly all actives have a fitted effect of over 35% in size; further: potency means the concentration at half of the fitted maximal effect
Conditions: KMS28PE multiple myeloma viability, CellTiter-Glo ATP, 48 h; series mostly up to 45.8 µM
Text: PI: Beverly A. Mock Ph.D. Laboratory of Cancer Biology and Genetics, Center for Cancer Research, National Cancer Institute, National Institute of Health, Bethesda, Maryland […] 5; Detector; 425V; Luminescence; Viewlux PerkinElmer. […] 1. […] Briefly, the corresponding myeloma cell lines were screened in 1,536-well plates with 500 cells, 5-uL per well for inhibition of cell viability (assessed by measuring ATP levels with CellTiterGlo). […]
Results filed as inconclusive are left out. Active and inactive are the calls of the source. Calls follow the shape of the dose curve; as a rule, active = well fitted cell-killing curve with a large enough effect; inconclusive = small, poorly fitted or top-dose-only effect, or effect the other way; inactive = no such curve, though single readings can be large or run the other way.
measurementType: Potency

[[record]]
molecule = "O=C(Nc1nc2cccc(-c3ccc(CN4CCS(=O)(=O)CC4)cc3)n2n1)C1CC1"
measurementtype = "Potency"
result = "13.2 µM (active)"

[[record]]
molecule = "COc1cccc2nc(-c3cccs3)nc(NN3C(=O)C=C(C)C3=O)c12"
measurementtype = "Potency"
result = "2.64 µM (active)"

[[record]]
molecule = "Cn1cc(-c2[nH]c3cc(NC(=O)[C@H](N)C4CCCCC4)cc4c3c2C=NNC4=O)cn1"
measurementtype = "Potency"
result = "1.48 µM (active)"

[[record]]
molecule = "Cc1nc2ccc(CN(C)c3ccc(C(=O)N[C@@H](CCC(=O)O)C(=O)O)s3)cc2c(=O)[nH]1"
measurementtype = "Potency"
result = "inactive"

[[record]]
molecule = "CNc1nccc(-c2cccnc2Oc2cc(C(=O)Nc3cccc(C(F)(F)F)c3)ccc2C)n1"
measurementtype = "Potency"
result = "20.9 µM (active)"

[[record]]
molecule = "C[C@H]1C[C@@H]2[C@@H]([C@@H](O)C[C@@]3(C)[C@H]2CC[C@]3(O)C(=O)CO)[C@@]2(C)C=CC(=O)C=C12"
measurementtype = "Potency"
result = "inactive"

[[record]]
molecule = "COC(=O)C1=C(C)NC(C)=C(C(=O)OCCN2CCN(C(c3ccccc3)c3ccccc3)CC2)C1c1cccc([N+](=O)[O-])c1 (stereo not drawn)"
measurementtype = "Potency"
result = "inactive"

[[record]]
molecule = "Cc1cn(-c2cc(NC(=O)c3ccc(C)c(Nc4nccc(-c5cccnc5)n4)c3)cc(C(F)(F)F)c2)cn1"
measurementtype = "Potency"
result = "20.9 µM (active)"

